- TARGET_ENTITY: T1, monkey GFRα3 expressed with a C-terminal myc-myc-hexahistidine tag (monkey (Mf), UniProt O60609 32-374 (human entry), limits assumed)
- T1 construct: also called MfGFRα3-mmh; MfGFRα3-mmH
- T1 chain: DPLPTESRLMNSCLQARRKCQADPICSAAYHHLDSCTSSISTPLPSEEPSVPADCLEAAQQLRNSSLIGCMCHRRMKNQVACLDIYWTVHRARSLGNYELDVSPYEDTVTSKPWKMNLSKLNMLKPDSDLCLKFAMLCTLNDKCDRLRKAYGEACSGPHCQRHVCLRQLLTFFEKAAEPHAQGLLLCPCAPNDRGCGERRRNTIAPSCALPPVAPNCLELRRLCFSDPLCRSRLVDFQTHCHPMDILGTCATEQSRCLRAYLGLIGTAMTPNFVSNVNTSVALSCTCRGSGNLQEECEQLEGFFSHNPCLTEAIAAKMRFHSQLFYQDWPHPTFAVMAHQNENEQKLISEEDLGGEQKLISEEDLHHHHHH
- PROTOCOL_DETAILS: SPR, Ab captured, 25C
OBSERVABLE: t1/2 (min)
Number in min, nothing else.

For orientation, consider the following solved cases.
H4H2294S (antibody, human IgG4, V domains shown, human IgG4 Fc (H4H)) VH: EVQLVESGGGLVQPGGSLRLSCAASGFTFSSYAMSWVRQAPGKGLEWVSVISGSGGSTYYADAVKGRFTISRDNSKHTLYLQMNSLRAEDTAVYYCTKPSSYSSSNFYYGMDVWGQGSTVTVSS VL: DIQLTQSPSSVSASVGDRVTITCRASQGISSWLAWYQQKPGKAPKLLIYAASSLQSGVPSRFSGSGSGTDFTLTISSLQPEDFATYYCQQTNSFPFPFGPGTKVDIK | 57
H4H2345S (antibody, human IgG4, V domains shown, human IgG4 Fc (H4H)) VH: EVQLVESGGGLVRPGRSLRLSCAASGFTFDNYAMHWVRQVPGKGLEWVSGITWNSVSLGYADSVKGRFTISRDNAQNSLYLQMNSLRTVDTALYYCAKDRWGGSYYFDFWGQGTLVTVSS VL: DIVMTQSPSSLSASVGDRVTITCRASQGISNYLAWYQQKPGKVPKLLIYSASTLQSGVPSRFSGSGSGTDFTLTISNLQPEDFATFFCQKYNSAPTFGGGTKVEIK | 4

Consider now this further binder.
Annotate the binder H4H2342P (antibody, human IgG4, V domains shown, human IgG4 Fc (H4H)) VH: EVQLLESGGGLVQPGGSLRLSCAASGFTFSTYAMSWVRQAPGKGLEWVSAIRGNGVNTYYGDSMKGRFTISRDNSKDTLYLQMNSLRAEDTAVYYCAKNKWELLVFEYWGQGTLVTVSS VL: DIQMTQSPSSLSASVGDRVTITCRASQDISNYLAWYQQKPGKVPKLLIYAASTLQSGVPFRFSGSGSGTDFTLTISSLQPEDVATYYCQKYNSAPPFGPGTKVDIK with its measured t1/2.
21

Data provenance is patent US20140056903A1.
